- measurementTarget: HLA-A*02:01 (Homo sapiens, UniProt P04439, D140Y/D185E/D98H/E176V/E277Q/G131W/G231S/I119V/I121R/I166T/I218V/L300P/L318F/N151K/N90K/P208A/P217A/Q86G/Q94H/R138H/R169H/T345S)
- Construct: made in house
- assayRemarks: MHC binding assay: UV-ligand exchange with β2m ELISA (peptide exchange yield)
- testParameters: binding to HLA-A*02:01 evaluated by peptide exchange yield (UV-ligand exchange, β2m ELISA)
reportedProperty: Peptide exchange

Use these answered entries as a reference point.
substance="48 (KISDFGLATV; listed as Homo sapiens) [compound 48]" reportedproperty="Peptide exchange" result="+++ (≧50 = +++)"
substance="179 (TLGEIIKGV; listed as Homo sapiens) [compound 179]" reportedproperty="Peptide exchange" result="+++ (≧50 = +++)"
substance="22 (LMYPYIYHV; listed as Homo sapiens) [compound 22]" reportedproperty="Peptide exchange" result="+++ (≧50 = +++)"
substance="269 (GLLDCPIFL; listed as Homo sapiens) [compound 269]" reportedproperty="Peptide exchange" result="++++ (≧75% = ++++)"

Task: Give Peptide exchange for the following substance: 108 (FIANLPPELKA; listed as Homo sapiens) [compound 108]
Result: +++ (≧50 = +++)

Task: Return value of Peptide exchange for input 161 (NLLDENVCL; listed as Homo sapiens) [compound 161] , no commentary.
Result: ++++ (≧75% = ++++)

Task: Please indicate Peptide exchange recorded for 220 (ALSELERVL; listed as Homo sapiens) [compound 220]
Result: +++ (≧50 = +++)

Task: Tell me Peptide exchange reported for 68 (QLMNLIRSV; listed as Homo sapiens) [compound 68]
Result: +++ (≧50 = +++)
